- tested on: alpha-synuclein (sonicated fibrils) (Homo sapiens, UniProt P37840)
- Construct: made in house; host or cells: E. coli
- protocol: Modified competition binding assay, protocol 3b, reference ligand [3H]-compound 2
- assay conditions: Table 5, reference ligand [3H]-compound 2 (1 nM)
measured attribute: Ki (nM)

> print(dat)
                                   compound  measured.attribute  quantitative.readout
1  CN(C)c1ccc(-c2cc(-c3ccnc(F)c3)[nH]n2)cc1 [Compound 3]                  Ki                  0.95
2  Brc1cncc(-c2cc(-c3ccc4c(c3)OCO4)n[nH]2)c1 [Compound 10]                  Ki                   7.8
3  CNc1ccc(-c2cc(-c3ccnc(Cl)c3)[nH]n2)cc1 [Compound 22]                  Ki                   0.3

A. CN(C)c1ncc(-c2cc(-c3cccc(Br)c3)[nH]n2)cn1 [Compound 5]
B. Brc1cccc(-c2cc(-c3cnc4c(c3)OCO4)n[nH]2)c1 [Compound 34]
QUERY: Looking at recorded values for Ki, does A or B come in lower? Identify your pick by its label.
RESULT: A
(A: 13 nM, B: 41 nM)

====

- tested on: aggregated alpha-synuclein (Homo sapiens, UniProt P37840)
- Construct: made in house; host or cells: E. coli
- protocol: Modified saturation binding assay, protocol 2b, alpha-synuclein fibrils
- assay conditions: saturation assay protocol 2b, sonicated fibrils 15 nM/well
measured attribute: Kd (nM)

I. CNc1ccc(-c2cc(-c3ccnc(Br)c3)[nH]n2)cc1
II. CN(C)c1ccc(-c2cc(-c3ccnc(Br)c3)[nH]n2)cc1
QUERY: I need your help: which of the pair I , II has higher Kd? Identify your pick by its label.
RESULT: II
(II: 0.6 nM, I: 0.2 nM)

====

- tested on: alpha-synuclein (sonicated fibrils) (Homo sapiens)
- Construct: made in house; host or cells: E. coli
- protocol: Modified competition binding assay, protocol 3b, reference ligand [3H]-compound 1
- assay conditions: Table 4b, reference ligand [3H]-compound 1 (1 nM), read-out: Ki (nM) alpha-synuclein (sonicated fibrils)
measured attribute: Ki (nM)

> print(dat)
                                smiles.code  measured.attribute  quantitative.readout
1  Brc1cccc(-c2cc(-c3ccc4c(c3)OCO4)n[nH]2)n1                  Ki                   6.7

I. Brc1ccnc(-c2cc(-c3ccc4c(c3)OCO4)n[nH]2)c1
II. CNc1ccc(-c2cc(-c3cc(Br)ccn3)[nH]n2)cc1
QUERY: I need your help: which of the pair I , II has higher Ki? Identify your pick by its label.
RESULT: I
(I: 5.2 nM, II: 3.3 nM)

1. CNc1ccc(-c2cc(-c3cncc(Br)c3)[nH]n2)cc1
2. CNc1ccc(-c2cc(-c3cccc(Br)n3)[nH]n2)cc1
3. CNc1ccc(-c2cc(-c3ccnc(Br)c3)[nH]n2)cc1
QUERY: Hi! Can you put these in order of Ki, lowest number first? Sort the labels as requested; that list is your answer.
RESULT: 3, 1, 2

a. Brc1cccc(-c2cc(-c3cc4c(cn3)OCO4)n[nH]2)c1
b. Brc1cc(-c2cc(-c3ccc4c(c3)OCO4)n[nH]2)ccn1
QUERY: I need your help: which of the pair a , b has higher Ki? Identify your pick by its label.
RESULT: a

Data provenance: patent US20230067910A1
